Test system: U2OS
Test: Multiplex assay against U2OS
Format: toxicity, cell-based
Conditions: human, 24 h, 1 µM, compound concentration 1 uM, replicate 2
Experimental Readout: Population Fragmented Nuclei (%)

Compound	Experimental Readout	Units	Result Value
Cc1noc(-c2ccc(-c3ccc(CC(=O)O)cc3)cc2)c1NC(=O)O[C@H](C)c1ccccc1Cl	Population Fragmented Nuclei (%)	%	15
CCCCC(=O)N(Cc1ccc(-c2ccccc2-c2nnn[nH]2)cc1)[C@H](C(=O)O)C(C)C	Population Fragmented Nuclei (%)	%	10
CC(C)COc1ccc(CNC(=O)N(Cc2ccc(F)cc2)C2CCN(C)CC2)cc1	Population Fragmented Nuclei (%)	%	11
Cc1sc2c(c1C)C(c1ccc(Cl)cc1)=N[C@@H](CC(=O)NCCCCCCCCNC(=O)COc1cccc3c1C(=O)N(C1CCC(=O)NC1=O)C3=O)c1nnc(C)n1-2 (stereo partly drawn)	Population Fragmented Nuclei (%)	%	12
CC(/C=C1\SC(=S)N(CCCC(=O)Nc2ccc(C(=O)O)c(O)c2)C1=O)=C\c1ccccc1	Population Fragmented Nuclei (%)	%	9
O=C(CCCc1ccccc1)Nc1nc2ccccc2c(=O)s1	Population Fragmented Nuclei (%)	%	17
COc1cccc2c1c(NS(=O)(=O)c1ccc(Cl)s1)nn2Cc1cccc(CNC(=O)C(C)(C)O)c1	Population Fragmented Nuclei (%)	%	28
Cc1cnc(-c2cc(N3CCN(C(=O)CCS(C)(=O)=O)CC3)ncc2Cl)c(C)c1	Population Fragmented Nuclei (%)	%	17

* * *

Test system: U2OS
Test: Multiplex assay against U2OS
Format: toxicity, cell-based
Details: human, 24 h, 1 µM, compound concentration 1 uM, replicate 1
Measured Population Normal (%), listed per entry.
Experimental Readout: Population Normal (%)

Molecule	Measurement Target	Result Value
O=C(NCCN1CCC(n2c(=O)[nH]c3cc(Cl)ccc32)CC1)c1ccc(F)cc1 [HALOPEMIDE]	U2OS	98
CC(C)c1noc(N2CCC(COc3ccc(-c4ccc(S(C)(=O)=O)cc4)nc3)CC2)n1 [GSK-1292263]	U2OS	98
CC[C@@H](C)Nc1nc(C)nc2c(-c3ccc(OC)nc3C)c(C)nn12 [PEXACERFONT]	U2OS	97
Cl.NCCc1ccc(O)c(O)c1 [DOPAMINE HYDROCHLORIDE]	U2OS	95
Cc1onc(-c2ccccc2Cl)c1C(=O)N(C)c1ccc(Cl)cc1	U2OS	99
COC[C@@H](c1ccc(C(F)(F)F)cc1)N1CCN(C2(C)CCN(C(=O)c3c(C)ncnc3C)CC2)C[C@@H]1C.O=C(O)/C=C\C(=O)O [VICRIVIROC MALEATE]	U2OS	96
Cc1c(CC(=O)O)c2cccnc2n1Cc1ccc(S(C)(=O)=O)cc1C(F)(F)F [FEVIPIPRANT]	U2OS	97
Cc1cccc(NC(=O)CN2CCC(c3ccccn3)CC2)c1.Cl.Cl	U2OS	96
Br.CS(=O)(=O)Nc1c(O)ccc2c1CCCC2C1=NCCN1 (stereo not drawn)	U2OS	97
Cl.N=C(N)NC(=O)Cc1c(Cl)cccc1Cl [GUANFACINE HYDROCHLORIDE]	U2OS	96
N#Cc1c(Oc2cccc(OS(=O)(=O)CCCC(F)(F)F)c2)cccc1C(F)(F)F	U2OS	97
CN(C)C(=O)Cn1cc(-c2ccc(-c3cncc4ccccc34)cc2)cn1	U2OS	96
CC(/C=C1\SC(=S)N(CCCC(=O)Nc2ccc(C(=O)O)c(O)c2)C1=O)=C\c1ccccc1	U2OS	96
CC(C)(C)c1cc(NC(=O)Nc2ccc(-c3cn4c(n3)sc3cc(OCCN5CCOCC5)ccc34)cc2)no1 [QUIZARTINIB]	U2OS	97
O=C1[C@H](Cc2ccc(O)cc2)N2C(=O)CCN(C(=O)NCc3ccccc3)[C@H]2CN1Cc1cccc2ccccc12	U2OS	97
N#Cc1cc(F)cc(-c2nc(-c3ccc(F)cn3)no2)c1	U2OS	95
CCCCC(=O)N(Cc1ccc(-c2ccccc2-c2nnn[nH]2)cc1)[C@H](C(=O)O)C(C)C	U2OS	97
CCCCC1=NC2(CCCC2)C(=O)N1Cc1ccc(-c2ccccc2-c2nnn[nH]2)cc1 [IRBESARTAN]	U2OS	96
